test system: C2C12; assay: Induction of RUNX transcriptional activation in mouse C2C12-6xOSE2 cells at 1 uM after 24 hrs by luciferase reporter assay relative to FGF-2; assay type: functional
Quick rule for you: Activity at 80% or higher means Criterion met, lower means Criterion not met.

Observe how each entry below is paired with its result.
{"cpd-smiles": "O=C(/C=C/c1cccn(CCCc2cccc(Br)c2)c1=O)NO", "category": "Criterion met"}
{"cpd-smiles": "O=C(/C=C/c1cccn(Cc2ccccn2)c1=O)NO", "category": "Criterion not met"}
{"cpd-smiles": "CCc1ccc(CCCn2cccc(/C=C/C(=O)NO)c2=O)cc1", "category": "Criterion not met"}
{"cpd-smiles": "O=C(/C=C/c1cccn(CCc2cccc(Br)c2)c1=O)NO", "category": "Criterion not met"}
{"cpd-smiles": "CCOc1ccccc1CCCn1cccc(/C=C/C(=O)NO)c1=O", "category": "Criterion met"}
{"cpd-smiles": "O=C(/C=C/c1cccn(CCc2ccncc2)c1=O)NO", "category": "Criterion not met"}

Q: Tell me whether Activity is at least 80% here: "O=C(/C=C/c1cccn(Cc2ccncc2)c1=O)NO"
Result: Criterion not met

Q: Tell me whether Activity is at least 80% here: "CCOc1cccc(CCn2cccc(/C=C/C(=O)NO)c2=O)c1"
Result: Criterion not met
